Kindly supply the reported growth values for the records listed here.
Tested on: MDA-MB-435 melanoma
Experiment: NCI-60 one-dose screen, 48 h (100 = growth as untreated, 0 = no growth, -100 = all killed)
Details: 10 µM unless noted
Compounds without any hit were thinned out: in the full panel of roughly 83,000, 20% have a hit.
Give the value in % but do not write % after it.

Exercise: For the compound `O=C(CCc1ccc(O)cc1)N/N=C/c1cc(Br)ccc1O` , what growth is on record?
Solution: 55.8

Exercise: For the compound `O=C(O)c1cc(C(=O)O)cc([N+](=O)[O-])c1` , what growth is on record?
Solution: 99

Exercise: For the compound `Cc1n[nH]c(=O)n(/N=C\c2c[nH]c3ccccc23)c1=O` , what growth is on record?
Solution: 107

Exercise: For the compound `N#C/C(=C/c1c(O)ccc2ccccc12)C(N)=O` , what growth is on record?
Solution: 104

Exercise: For the compound `O=C1c2ccccc2C(=O)N1/N=C/c1ccc2c(c1)OCO2` , what growth is on record?
Solution: 114

Exercise: For the compound `COc1ccc2ccccc2c1/C=N/N1CCCCC1` , what growth is on record?
Solution: 99.1

Exercise: For the compound CC(O)Cn1cnc2c1c(=O)n(C)c(=O)n2C (configuration not stated) , what growth is on record?
Solution: 109

Exercise: For the compound Nc1ccccc1SC1CC(=O)N(c2cccc3ccccc23)C1=O (configuration not stated) , what growth is on record?
Solution: 88.7

Exercise: For the compound `CC1=C(/C=C/C(C)=C/C=C/C(C)=C/C(=O)Nc2ccc(O)cc2)C(C)(C)CCC1` , what growth is on record?
Solution: 31.7

Exercise: For the compound `Clc1nc(Oc2ccccc2)nc(-c2cn(-c3ccccc3)c3ccccc23)n1` , what growth is on record?
Solution: 38.2

Exercise: For the compound `Cc1c(Cl)cccc1NCN1C(=O)c2ccccc2C1=O` , what growth is on record?
Solution: 104

Exercise: For the compound `Nc1ccc2[nH]c(-c3ccccc3)cc(=O)c2c1` , what growth is on record?
Solution: -21.2

Exercise: For the compound CCC(=O)C(CC)c1cccc(OC)c1 (configuration not stated) , what growth is on record?
Solution: 101

Exercise: For the compound `O=[N+]([O-])c1ccc2nc3c4ccccc4c4ccccc4c3nc2c1` , what growth is on record?
Solution: 95

Exercise: For the compound `N#C/C(=C1C=C/C(=N/O)C(Br)=C/1)c1ccccc1` , what growth is on record?
Solution: -64.5

Exercise: For the compound `N#CCCOc1ccccc1` , what growth is on record?
Solution: 96.4

Exercise: For the compound CC(/C=N/N1C(=O)c2ccccc2C1=O)c1ccccc1 (configuration not stated) , what growth is on record?
Solution: 91.6

Exercise: For the compound O=C1c2c(O)cc(O)cc2OC(c2ccc(O)c(O)c2)C1O (configuration not stated) , what growth is on record?
Solution: 111

Exercise: For the compound `N=C1N=C(N)CS1` , what growth is on record?
Solution: 106

Exercise: For the compound `CCOC(=O)C(CNc1ccccc1)C(=O)OCC` , what growth is on record?
Solution: 108

Exercise: For the compound `Nc1ccc2ccc(N)cc2c1` , what growth is on record?
Solution: -33.6

Exercise: For the compound `Nc1ccccc1Nc1ccccc1` , what growth is on record?
Solution: 91.5

Exercise: For the compound Oc1ccccc1C=NCC1CCC(CN=Cc2ccccc2O)CC1 (configuration not stated) , what growth is on record?
Solution: 104

Exercise: For the compound `Oc1c(CN2CCCCC2)ccc2cccnc12` , what growth is on record?
Solution: 63.9

Exercise: For the compound `Nc1n[nH]c(=S)n1-c1ccc(Cl)cc1` , what growth is on record?
Solution: 112

Exercise: For the compound `CC12CCC(CC1)C(C)(C)O2` , what growth is on record?
Solution: 100

Exercise: For the compound NCCSC(C[N+](=O)[O-])c1ccccc1Cl (configuration not stated) , what growth is on record?
Solution: -24.7

###

Kindly supply the reported growth values for the records listed here.
Tested on: IGROV1 ovarian
Assay: NCI-60 one-dose screen, 48 h (100 = growth as untreated, 0 = no growth, -100 = all killed)
Conditions: 10 µM
The panel holds about 83,000 compounds, 20% with a hit somewhere; the sample as a whole holds those more often.
Give the value in % but do not write % after it.

Exercise: Identify the measured growth of `CNC(=O)c1cc(Oc2ccc(CC(=O)Nc3cc(C(C)(C)C)nn3C)cc2)ccn1` for IGROV1 ovarian.
Solution: 85.6

Exercise: Identify the measured growth of `CC(C)(C)c1cc(NC(=O)Cc2ccc(-c3cnc4cc(-c5cnn(CCN6CCOCC6)c5)ccc4n3)cc2)no1` for IGROV1 ovarian.
Solution: -7.95

Exercise: Identify the measured growth of `CC#C[C@]1(O)CC[C@H]2[C@@H]3CCC4=CC(=O)CCC4=C3[C@@H](c3ccc4c(c3)OCO4)C[C@@]21C` for IGROV1 ovarian.
Solution: 86.1

Exercise: Identify the measured growth of `CC1(C)OB(c2ccc(Cn3cc(F)c(=O)[nH]c3=O)cc2)OC1(C)C` for IGROV1 ovarian.
Solution: 98.8

Exercise: Identify the measured growth of `CCc1ccccc1-n1c(N)c(C#N)c(-c2ccc(OC)c(OC)c2)c(C#N)c1=O` for IGROV1 ovarian.
Solution: 107

###

Test system: SK-MEL-5 melanoma
Test: NCI-60 one-dose screen, 48 h
Conditions: 10 µM unless noted
About 83,000 compounds went through this panel and 20% of them were active in at least one assay; those are over-represented in the sample as a whole. Calls of active or inactive are those of the source. Rule for the calls: active = growth percent below 10; inactive = the rest.
Answer with one of the outcomes given here: class 1 for active, class 0 for inactive

Exercise: Test call for this compound, please: `Cc1ccc(-c2noc(C)n2)cc1`
Solution: class 0

Exercise: Test call for this compound, please: Oc1ccccc1C=NCC1CCC(CN=Cc2ccccc2O)CC1 (configuration not stated)
Solution: class 0

Exercise: Test call for this compound, please: `Cc1ccc(S(=O)(=O)Nc2ccc3cc([N+](=O)[O-])ccc3c2[N+](=O)[O-])cc1`
Solution: class 0

Exercise: Test call for this compound, please: O=C1c2c(O)cc(O)cc2OC(c2ccc(O)c(O)c2)C1O (configuration not stated)
Solution: class 0

Exercise: Test call for this compound, please: `Nc1ccc2ccc(N)cc2c1`
Solution: class 0

Exercise: Test call for this compound, please: `CCOc1ccc2nc3cc(N)ccc3c(N)c2c1`
Solution: class 0

Exercise: Test call for this compound, please: `COc1ccc2ccccc2c1/C=N/N1CCCCC1`
Solution: class 0

Exercise: Test call for this compound, please: `CC1=C(/C=C/C(C)=C/C=C/C(C)=C/C(=O)Nc2ccc(O)cc2)C(C)(C)CCC1`
Solution: class 0

Exercise: Test call for this compound, please: `Cc1cc(-c2ccc(NS(=O)(=O)c3ccccc3)c(C)c2)ccc1NS(=O)(=O)c1ccccc1`
Solution: class 0

Exercise: Test call for this compound, please: `O=C(O)c1cc(C(=O)O)cc([N+](=O)[O-])c1`
Solution: class 0

Exercise: Test call for this compound, please: `N#CCCOc1ccccc1`
Solution: class 0

Exercise: Test call for this compound, please: CC(/C=N/N1C(=O)c2ccccc2C1=O)c1ccccc1 (configuration not stated)
Solution: class 0

Exercise: Test call for this compound, please: `N#C/C(=C/c1c(O)ccc2ccccc12)C(N)=O`
Solution: class 0

Exercise: Test call for this compound, please: `O=C(Nc1ccc([N+](=O)[O-])cc1Cl)c1cc(Cl)ccc1O`
Solution: class 1

Exercise: Test call for this compound, please: `CCCCCCCCCCCCCCCCOc1ccc(C)cc1`
Solution: class 0

Exercise: Test call for this compound, please: `N#C/C(=C1C=C/C(=N/O)C(Br)=C/1)c1ccccc1`
Solution: class 0

Exercise: Test call for this compound, please: O=C1OC(Oc2ccc(Br)cc2)(c2ccccc2)c2ccccc21 (configuration not stated)
Solution: class 0

Exercise: Test call for this compound, please: `OCc1ccccn1`
Solution: class 0

Exercise: Test call for this compound, please: `Nc1ccc2[nH]c(-c3ccccc3)cc(=O)c2c1`
Solution: class 0

Exercise: Test call for this compound, please: `O=C1c2ccccc2C(=O)N1/N=C/c1ccc2c(c1)OCO2`
Solution: class 0

Exercise: Test call for this compound, please: CCC(=O)C(CC)c1cccc(OC)c1 (configuration not stated)
Solution: class 0

Exercise: Test call for this compound, please: `S=C1SCN(Cc2ccccc2)CN1Cc1ccccc1`
Solution: class 0

Exercise: Test call for this compound, please: `O=[N+]([O-])c1ccc2nc3c4ccccc4c4ccccc4c3nc2c1`
Solution: class 0

Exercise: Test call for this compound, please: `N=C1N=C(N)CS1`
Solution: class 0

Exercise: Test call for this compound, please: `c1ccc(N(c2ccccc2)c2ccccc2)cc1`
Solution: class 0

Exercise: Test call for this compound, please: `Nc1n[nH]c(=S)n1-c1ccc(Cl)cc1`
Solution: class 0

Exercise: Test call for this compound, please: `O=C(N/N=C/c1ccc2c(c1)OCO2)c1ccncc1`
Solution: class 0

Exercise: Test call for this compound, please: Nc1ccccc1SC1CC(=O)N(c2cccc3ccccc23)C1=O (configuration not stated)
Solution: class 0

Exercise: Test call for this compound, please: `COc1cc(C(=O)N/N=C/c2ccc(N(C)C)cc2)cc(OC)c1OC`
Solution: class 1

Exercise: Test call for this compound, please: CC(O)Cn1cnc2c1c(=O)n(C)c(=O)n2C (configuration not stated)
Solution: class 0

Exercise: Test call for this compound, please: `CCOC(=O)C(CNc1ccccc1)C(=O)OCC`
Solution: class 0

Exercise: Test call for this compound, please: `Cc1n[nH]c(=O)n(/N=C\c2c[nH]c3ccccc23)c1=O`
Solution: class 0

Exercise: Test call for this compound, please: NC(=O)c1ccccc1OCC(O)CO (configuration not stated)
Solution: class 0

Exercise: Test call for this compound, please: `CCN(CC)C(=O)c1cccnc1`
Solution: class 0

Exercise: Test call for this compound, please: NCCSC(C[N+](=O)[O-])c1ccccc1Cl (configuration not stated)
Solution: class 0

Exercise: Test call for this compound, please: `Cc1ccc2nc3c(nc2c1)-c1cccc2cccc-3c12`
Solution: class 0

Exercise: Test call for this compound, please: `CC(C)(C)c1cc(NC(=O)Cc2ccc(-c3cnc4cc(-c5cnn(CCN6CCOCC6)c5)ccc4n3)cc2)no1`
Solution: class 1

Exercise: Test call for this compound, please: `C[N+](C)(C)CN1C(=O)c2ccccc2C1=O`
Solution: class 0

Exercise: Test call for this compound, please: `Clc1nc(Oc2ccccc2)nc(-c2cn(-c3ccccc3)c3ccccc23)n1`
Solution: class 0

Exercise: Test call for this compound, please: `Fc1ccccc1Nc1n[nH]c(=S)s1`
Solution: class 0

Exercise: Test call for this compound, please: `NC(=S)NS(=O)(=O)c1ccc(N)cc1`
Solution: class 0

Exercise: Test call for this compound, please: `OCCN1CCN(CCCN2c3ccccc3Sc3ccc(Cl)cc32)CC1`
Solution: class 0
